biological target: human neutrophil elastase (Homo sapiens); assay: In vitro assay of human neutrophil elastase (HNE); format: biochemical; conditions: 118 nM purified human neutrophil elastase, pH 8.6, 15 min incubation at 30° C., MeO-succinyl-alanyl-alanyl-prolyl-valyl-p-nitroanilide substrate; read-out: HNE IC50
Sequence (P08246 30-267): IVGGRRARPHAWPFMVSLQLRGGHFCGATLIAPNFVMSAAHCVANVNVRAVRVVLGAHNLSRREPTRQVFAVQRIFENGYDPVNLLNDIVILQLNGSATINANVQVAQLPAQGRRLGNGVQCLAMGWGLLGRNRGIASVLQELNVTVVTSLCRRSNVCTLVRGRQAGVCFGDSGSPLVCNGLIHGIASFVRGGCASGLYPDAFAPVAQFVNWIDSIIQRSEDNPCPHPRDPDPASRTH
pIC50: −log10 of the molar value. Counter-ions that a name gives are not always drawn.
pIC50 of 7 or higher: 1. Under 7: 0.

CC[C@H]1C(=O)N(S(=O)(=O)c2ccc3ccccc3c2)[C@H]2CCN(S(=O)(=O)CCCN3CCOCC3)[C@H]12 (relative stereo): 0
CCN(CC)C/C=C/C(=O)N1CC[C@H]2[C@H]1[C@@H](C(C)C)C(=O)N2S(C)(=O)=O (relative stereo) [Example 145, hydrochloride]: 1
CCC[C@H]1C(=O)N(S(C)(=O)=O)[C@H]2CCN(S(=O)(=O)c3ccc(C(=O)N4CCN(C)CC4)cc3)[C@H]12 (relative stereo) [Example 127, hydrochloride]: 1

Ask | // inclusive: pIC50 at least 7? input: CC(C)[C@H]1C(=O)N(S(C)(=O)=O)[C@H]2CCN(C(=O)c3ccc(CN4CCC5CCCCC5C4)cc3)[C@H]12.Cl (relative stereo) [Example 184, hydrochloride]
Reply | 1

----------
system: Intracellular elastase; assay: Oral in vivo model using IL-8 induced lung infiltrates for the assessment of intracellular elastase inhibition (hamster test); conditions: effective dose of less than 40 mg/kg, IL-8 intratracheal
Counter-ions that a name gives are not always drawn.
Readout: duration of effect

CC(C)[C@H]1C(=O)N(S(C)(=O)=O)[C@H]2CCN(C(=O)/C=C/CN3C(C)CCC3C)[C@H]12.Cl (relative stereo) [Example 149]: at least 6 hours
CCC[C@@H]1C(=O)N(S(C)(=O)=O)[C@@H]2CCN(C(=O)CCCCCN3CCCCCC3)[C@@H]12 [Example 117, hydrochloride]: at least 6 hours
CC(C)[C@H]1C(=O)N(S(C)(=O)=O)[C@H]2CCN(C(=O)c3cccc(CN4CCC(C(N)=O)CC4)c3)[C@H]12.Cl (relative stereo) [Example 191]: at least 6 hours

----------
target: human neutrophil elastase (Homo sapiens); assay: In vitro assay of human neutrophil elastase (HNE); type: biochemical; conditions: 118 nM purified human neutrophil elastase, pH 8.6, 15 min incubation at 30° C., MeO-succinyl-alanyl-alanyl-prolyl-valyl-p-nitroanilide substrate; read-out: HNE IC50
Structures can show the parent of a compound that is named as a salt.
Documented pIC50 across a set of compounds
Remember the convention: pIC50 equals -log10 of concentration in molar.

These recorded examples may help you get a feel for the data.
C=CC[C@H]1C(=O)N(S(=O)(=O)c2ccc3ccccc3c2)[C@H]2CCN(C(=O)OCc3ccccc3)[C@H]12 [Example 55]: 7.42
CC(C)[C@H]1C(=O)N(S(C)(=O)=O)[C@H]2CCN(C(=O)c3ccc(CN4CCC(C(N)=O)CC4)cc3)[C@H]12.Cl (relative stereo) [Example 187, hydrochloride]: 7.37
CC(C)[C@H]1C(=O)N(S(C)(=O)=O)[C@H]2CCN(C(=O)/C=C/CN3C(C)CCC3C)[C@H]12.Cl (relative stereo) [Example 149, hydrochloride]: 7.34
CCC[C@H]1C(=O)N(S(C)(=O)=O)[C@H]2CCN(C(=O)CCCCCN3CCCC3)[C@H]12 (relative stereo) [Example 73, hydrochloride]: 7.13

Field pIC50 (entry CC(C)[C@H]1C(=O)N(S(C)(=O)=O)[C@H]2CCN(C(=O)c3cccc(CN4CCC(C(N)=O)CC4)c3)[C@H]12.Cl (relative stereo) [Example 191, hydrochloride] ) reads 7.39

Field pIC50 (entry CC(C)[C@H]1C(=O)N(S(C)(=O)=O)[C@H]2CCN(C(=O)c3cccc(CNC4CC4)c3)[C@H]12.Cl (relative stereo) [Example 190, hydrochloride] ) reads 7.62

Field pIC50 (entry CC(C)[C@H]1C(=O)N(S(C)(=O)=O)[C@H]2CCN(C(=O)/C=C/CN3CCN(C)CC3)[C@H]12.Cl (relative stereo) [Example 143, hydrochloride] ) reads 7.48

Field pIC50 (entry CCC[C@H]1C(=O)N(S(C)(=O)=O)[C@H]2CCN(C(=O)CCCCCN3CCC3)[C@H]12 (relative stereo) ) reads 7.06

Field pIC50 (entry CCC[C@H]1C(=O)N(S(=O)(=O)c2ccc3ccccc3c2)[C@H]2CCN(S(=O)(=O)Cc3cccc(-c4nnn[nH]4)c3)[C@H]12 (relative stereo) ) reads 7.12

Field pIC50 (entry CC(C)[C@H]1C(=O)N(S(C)(=O)=O)[C@H]2CCN(C(=O)c3cccc(CN(C)C)c3)[C@H]12 (relative stereo) [Example 253, hydrochloride] ) reads 7.12

Field pIC50 (entry CO[C@H]1C(=O)N(S(C)(=O)=O)[C@H]2CCN(C(=O)OCc3ccccc3)[C@H]12 (relative stereo) ) reads 6.80

Field pIC50 (entry CCC[C@H]1C(=O)N(S(C)(=O)=O)[C@H]2CCN(C(=O)CN(C)c3ccccc3)[C@H]12 (relative stereo) [Example 103, hydrochloride] ) reads 6.98

Field pIC50 (entry CCC[C@H]1C(=O)N(S(C)(=O)=O)[C@H]2CCN(C(=O)c3cccn3C)[C@H]12 (relative stereo) ) reads 7.48

Field pIC50 (entry CCC[C@H]1C(=O)N(S(=O)(=O)c2cccc3ccccc23)[C@H]2CCN(S(C)(=O)=O)[C@H]12 (relative stereo) ) reads 7.10

Field pIC50 (entry COC(=O)[C@@H]1CCCN1C/C=C/C(=O)N1CC[C@H]2[C@H]1[C@@H](C(C)C)C(=O)N2S(C)(=O)=O (relative stereo) [Example 140, hydrochloride] ) reads 7.44

Field pIC50 (entry CC(C)[C@H]1C(=O)N(S(C)(=O)=O)[C@H]2CCN(C(=O)/C=C/CN3CCOCC3)[C@H]12.Cl (relative stereo) [Example 142, hydrochloride] ) reads 7.26

Origin of values: patent US6215002A
